Tested on: Moraxella catarrhalis (ATCC 8176)
Reported MIC values follow for various molecules

{"columns": ["Smiles Code", "Target Under Test", "MIC"],
 "data": [
  ["COc1ccc2ncc(=O)n(CCN3CCC(NCc4ccc(C)c([N+](=O)[O-])c4)CC3)c2c1", "Moraxella catarrhalis (ATCC 8176)", "≤ 0.06 µg/mL"],
  ["Cc1ccc(CNC2CCN(CCn3c(=O)ccc4ccc(C#N)cc43)CC2)cc1[N+](=O)[O-]", "Moraxella catarrhalis (ATCC 8176)", "> 32 µg/mL"],
  ["COc1ccc2ncc(C#N)c(CCN3CCC(NCc4cc(OC)c(O)c([N+](=O)[O-])c4)CC3)c2c1", "Moraxella catarrhalis (ATCC 8176)", "> 32 µg/mL"],
  ["COc1ccc2ncc(C#N)c(CCN3CCC(NC(=O)c4ccc([N+](=O)[O-])c(F)c4)CC3)c2c1", "Moraxella catarrhalis (ATCC 8176)", "> 32 µg/mL"]
]}

----------
Molecular target: ciprofloxacin resistant recombinant Gyrase protein (with mutation S83L) (Escherichia coli, UniProt P0AES4+P0AES6, S83L)
Construct: purchased Inspiralis
Test: Gyrase supercoiling assay with ciprofloxacin resistant Gyrase (S83L)
Assay type: biochemical
Conditions: read-out: Target specificity: % inhibition of supercoiling activity
Recorded inhibition at 0.1 µM by entry

{"columns": ["Compound", "inhibition at 0.1 µM"],
 "data": [
  ["Cc1ccc(CNC2CCN(CCn3c(=O)cnc4ccc(F)cc43)CC2)cc1C#N [VT-03-00117]", "88.2%"],
  ["Cc1ccc(CNC2CCN(CCn3c(=O)cnc4ccc(Cl)nc43)CC2)cc1F [VT-03-00111]", "90.4%"],
  ["Cc1ccc(CNC2CCN(CCn3c(=O)cnc4ccc(Cl)nc43)CC2)cc1[N+](=O)[O-] [VT-03-00118]", "91.5%"],
  ["Cc1ccc(CNC2CCN(CCn3c(=O)cnc4ccc(F)cc43)CC2)cc1[N+](=O)[O-] [VT-03-00113]", "90%"]
]}

----------
In this section, each of the molecules is paired with its reported MIC.
Tested on: Pseudomonas ATCC 27853
Assay: MIC by microbroth dilution, Pseudomonas ATCC 27853
Type: cell-based
Conditions: ATCC27853, Formula II compounds, read-out: Minimum Inhibitory Concentration (MIC) Pseudomonas ATCC 27853

{"columns": ["Smiles Code", "U", "Relation Qualifier", "MIC"],
 "data": [
  ["COc1ccc2ncc(=S)n(CCN3CCC(NCc4ccc(C)c(F)c4)CC3)c2c1", "µg/mL", ">", 32],
  ["COc1ccc2ncc(=O)n(CCN3CC[C@H](NCc4ccc(C)c([N+](=O)[O-])c4)[C@H](F)C3)c2c1", "µg/mL", "=", 32],
  ["COc1ccc2ncc(=O)n(CCN3CCC(NCc4ccc(Cl)c([N+](=O)[O-])c4)CC3)c2c1", "µg/mL", "=", 8],
  ["COc1ccc2ncc(=S)n(CCN3CCC(NCc4ccc(C)c([N+](=O)[O-])c4)CC3)c2c1", "µg/mL", "=", 8],
  ["O=c1cnc2ccc(F)cc2n1CCN1CCC(NCc2ccc(Cl)c([N+](=O)[O-])c2)CC1", "µg/mL", "=", 16],
  ["Cc1ccc(CNC2CCN(CCn3c(=O)cnc4ccc(Cl)nc43)CC2)cc1[N+](=O)[O-]", "µg/mL", "=", 8],
  ["Cc1ccc(CNC2CCN(CCn3c(=O)cnc4ncc(C#N)cc43)CC2)cc1[N+](=O)[O-]", "µg/mL", ">", 32]
]}
